- System Under Test: T1, recombinant human MASP1 active protease (amino acids 297-699, C-terminal His Tag) (human, UniProt P48740 297-699)
- T1 sequence: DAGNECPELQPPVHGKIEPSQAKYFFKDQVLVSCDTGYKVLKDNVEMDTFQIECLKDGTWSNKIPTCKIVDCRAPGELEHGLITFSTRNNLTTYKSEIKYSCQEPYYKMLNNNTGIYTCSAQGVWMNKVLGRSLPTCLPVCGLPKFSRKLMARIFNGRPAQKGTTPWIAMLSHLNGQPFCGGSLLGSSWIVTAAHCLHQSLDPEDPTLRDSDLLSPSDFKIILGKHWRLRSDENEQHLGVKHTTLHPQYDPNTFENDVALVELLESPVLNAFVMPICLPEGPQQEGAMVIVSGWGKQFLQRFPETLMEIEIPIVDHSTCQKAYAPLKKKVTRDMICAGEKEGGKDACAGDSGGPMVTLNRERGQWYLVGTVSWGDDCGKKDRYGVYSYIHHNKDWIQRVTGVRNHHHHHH
- Experimental Details: cell-based or functional assay
Bridge positions count the residues as written; N and C are the ends. Square brackets hold non-standard residues; d marks the D form. Ends that are not written are not given here. * marks the point of attachment. X5 = Tetrahydropyranyl‑4‑acetic acid, O=C(CC1CCOCC1)*; tBuAla = CC(C)(C)C[C@H](N)C(=O)O; Pen = CC(C)(S)[C@H](N)C(=O)O; Orn = NCCC[C@H](N)C(=O)O; Sar = CNCC(=O)O

>  <Binder>
X5-ICSRS[tBuAla]PPICIPD-NH2 (disulfide 2-10; SMILES CC[C@H](C)[C@H](NC(=O)CC1CCOCC1)C(=O)N[C@H]1CSSC[C@@H](C(=O)N[C@H](C(=O)N2CCC[C@H]2C(=O)N[C@@H](CC(=O)O)C(N)=O)[C@@H](C)CC)NC(=O)[C@H]([C@@H](C)CC)NC(=O)[C@@H]2CCCN2C(=O)[C@@H]2CCCN2C(=O)[C@H](CC(C)(C)C)NC(=O)[C@H](CO)NC(=O)[C@H](CCCNC(=N)N)NC(=O)[C@H](CO)NC1=O) [Example 342: (Tetrahydropyranyl-4-acetic acid)-IC+SRS-((tBu)A)-PPIC+IPD-NH2]

>  <Measurement Unit>
nM

>  <human MASP1 IC50>
26

$$$$
>  <Binder>
[Sar]ICSRS[tBuAla]PPI[Pen]IP[Orn][Orn][Orn]-NH2 (disulfide 3-11; N-terminus assumed; SMILES CC[C@H](C)[C@H](NC(=O)CNC)C(=O)N[C@H]1CSSC(C)(C)[C@@H](C(=O)N[C@H](C(=O)N2CCC[C@H]2C(=O)N[C@@H](CCCN)C(=O)N[C@@H](CCCN)C(=O)N[C@@H](CCCN)C(N)=O)[C@@H](C)CC)NC(=O)[C@H]([C@@H](C)CC)NC(=O)[C@@H]2CCCN2C(=O)[C@@H]2CCCN2C(=O)[C@H](CC(C)(C)C)NC(=O)[C@H](CO)NC(=O)[C@H](CCCNC(=N)N)NC(=O)[C@H](CO)NC1=O) [Example 430: ((N-Me)G)-IC+SRS-((tBu)A)-PPI-(Pen)+IP-(Orn)-(Orn)-(Orn)-NH2]

>  <Measurement Unit>
nM

>  <human MASP1 IC50>
1.4

$$$$
